- Tested On: alpha7 nAChR (Rattus norvegicus)
- Sequence (Q05941 23-502): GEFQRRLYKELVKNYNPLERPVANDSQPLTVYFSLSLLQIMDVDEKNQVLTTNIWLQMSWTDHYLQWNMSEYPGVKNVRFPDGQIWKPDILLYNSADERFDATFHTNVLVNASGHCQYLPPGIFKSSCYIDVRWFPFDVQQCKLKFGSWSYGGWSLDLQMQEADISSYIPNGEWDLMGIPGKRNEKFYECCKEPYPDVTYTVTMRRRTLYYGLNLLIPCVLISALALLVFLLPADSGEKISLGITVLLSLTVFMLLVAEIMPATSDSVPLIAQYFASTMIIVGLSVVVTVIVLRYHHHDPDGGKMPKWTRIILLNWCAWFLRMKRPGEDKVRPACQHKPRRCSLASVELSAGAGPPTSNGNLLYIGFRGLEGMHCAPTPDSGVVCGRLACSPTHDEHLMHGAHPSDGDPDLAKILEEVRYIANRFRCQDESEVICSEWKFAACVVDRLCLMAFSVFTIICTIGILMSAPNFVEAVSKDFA
- Experiment Notes: [3H]-MLA displacement from rat hippocampal membranes
- Type: binding
- Condition Details: IC50 [3H]-MLA displacement, rat hippocampal membranes, 2nM [3H]-MLA
Measured Endpoint: IC50

Consider the following illustrative entries.
[
  {
    "Compound": "COc1ccc(-c2oc3cc(O)cc(O)c3c(=O)c2O)cc1O",
    "IC50": "238 µM"
  },
  {
    "Compound": "O=c1c(O)c(-c2ccc(O[C@@H]3O[C@H](CO)[C@@H](O)[C@H](O)[C@H]3O)c(O)c2)oc2cc(O)cc(O)c12 [Spiraeoside]",
    "IC50": "8.35 µM"
  },
  {
    "Compound": "O=c1c(O[C@@H]2O[C@H](CO)[C@@H](O)[C@H](O)[C@H]2O)c(-c2ccc(O)cc2)oc2cc(O)cc(O)c12",
    "IC50": "496 µM"
  },
  {
    "Compound": "O=c1c(O)c(-c2ccc(O)c(O)c2)oc2cc(O)cc(O)c12",
    "IC50": "11.4 µM"
  },
  {
    "Compound": "O=c1c(-c2ccc(O)cc2)coc2cc(O[C@@H]3O[C@H](CO)[C@@H](O)[C@H](O)[C@H]3O)ccc12",
    "IC50": "120 µM"
  },
  {
    "Compound": "O=c1cc(-c2ccccc2)oc2cc(O)c(O)c(O)c12",
    "IC50": "66.1 µM"
  }
]

Kindly review the next compound as well.
// IC50 lookup, compound = COc1cc(-c2oc3cc(O)cc(O)c3c(=O)c2O)ccc1O , result: 46.5 µM
